Target: human ether-à-go-go-related gene (hERG) potassium channel (human, UniProt Q12809);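 note: peak tail current of the secondary pulse compared with the same well before compound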
Sequence (Q12809 whole entry, looked up): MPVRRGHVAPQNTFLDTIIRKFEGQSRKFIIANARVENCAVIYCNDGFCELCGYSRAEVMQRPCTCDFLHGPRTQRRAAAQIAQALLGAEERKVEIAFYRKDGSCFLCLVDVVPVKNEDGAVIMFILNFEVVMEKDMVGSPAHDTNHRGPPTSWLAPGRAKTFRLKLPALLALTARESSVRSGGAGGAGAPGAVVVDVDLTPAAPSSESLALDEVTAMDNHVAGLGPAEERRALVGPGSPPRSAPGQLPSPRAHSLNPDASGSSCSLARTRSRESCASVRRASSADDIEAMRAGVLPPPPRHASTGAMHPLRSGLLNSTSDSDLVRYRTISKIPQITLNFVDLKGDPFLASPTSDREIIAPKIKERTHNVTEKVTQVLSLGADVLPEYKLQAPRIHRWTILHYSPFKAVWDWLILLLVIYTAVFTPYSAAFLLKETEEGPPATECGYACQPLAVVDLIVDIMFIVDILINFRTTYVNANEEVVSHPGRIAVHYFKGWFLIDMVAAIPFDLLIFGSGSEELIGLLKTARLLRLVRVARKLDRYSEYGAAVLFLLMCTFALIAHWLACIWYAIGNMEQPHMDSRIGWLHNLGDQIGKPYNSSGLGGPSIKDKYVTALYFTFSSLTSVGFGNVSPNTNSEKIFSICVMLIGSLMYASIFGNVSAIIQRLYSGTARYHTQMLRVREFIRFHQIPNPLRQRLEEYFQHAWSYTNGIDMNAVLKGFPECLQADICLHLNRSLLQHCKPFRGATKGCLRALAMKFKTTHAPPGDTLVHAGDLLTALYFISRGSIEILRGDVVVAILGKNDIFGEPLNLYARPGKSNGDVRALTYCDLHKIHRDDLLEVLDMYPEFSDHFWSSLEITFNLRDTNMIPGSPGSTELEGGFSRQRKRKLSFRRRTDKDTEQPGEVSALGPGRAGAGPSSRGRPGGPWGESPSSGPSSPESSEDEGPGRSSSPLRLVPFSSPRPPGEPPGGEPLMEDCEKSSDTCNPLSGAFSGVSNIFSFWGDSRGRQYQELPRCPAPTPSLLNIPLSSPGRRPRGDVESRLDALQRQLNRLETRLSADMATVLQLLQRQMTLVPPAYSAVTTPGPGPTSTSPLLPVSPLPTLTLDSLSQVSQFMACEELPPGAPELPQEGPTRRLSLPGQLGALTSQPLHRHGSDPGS
Experiment: primary screen, population patch clamp on CHO cells stably expressing hERG; higher = less effect of the substance
The whole screen tested about 310,000 compounds, of which about 14,000 (4.5%) showed an effect of 50% or more. The effect is printed as a negative number. This is one part of a sample in which strong results are shown more often than they occur.
Metric Name: hERG current change (%, negative = inhibition) at 10uM (%)
Numbers only, in %.

Answered examples (3):
{"columns": ["Record Smiles", "Numeric Readout"],
 "data": [
  ["CCCC(=O)c1ccc(N2CCN(C(=O)c3ccc(Br)cc3)CC2)c(F)c1", 2.35],
  ["Nc1nnnn1CC(=O)N/N=C/C=C/c1ccccc1", 16.1],
  ["CC(=O)c1cc(F)c(N2CCN(C(=O)Cc3ccccc3)CC2)cc1C", -11.5]
]}

Look at each compound and report its hERG current change (%, negative = inhibition) at 10uM.
1. CCOc1ccc(C(=O)COC(=O)CC)cc1
2. O=C(Nc1ccc(C2=NCCN2)cc1)c1ccc(C(=O)Nc2ccc(C3=NCCN3)cc2)c([N+](=O)[O-])c1
3. O=C(NCCN1CCCCC1)c1cc(Cl)ccc1Cl
4. CCCC(=O)c1ccc(N2CCN(C(=O)c3ccccc3)CC2)c(F)c1

Key:
4.46
20.1
1.65
-66.7
